Origin of values: the RNAGym collection of RNA variant scans (doi:10.1126/science.aae0568)

Entries annotated with measured yeast fitness
B1: tRNA (parent)
chain: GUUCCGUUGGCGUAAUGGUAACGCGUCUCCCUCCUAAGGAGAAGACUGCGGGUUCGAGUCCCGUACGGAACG

# Variants of: B1
# experiment_summary: yeast fitness relative to wild type (ratio to wild type); higher = fitter; tRNA-Arg(CCU), competitive growth, 37 C, YPD
Variants at the floor of the assay were thinned out.

| variant_string | qualifier_symbol | yeast fitness |
| --- | --- | --- |
| A14G C29U | = | 0.988 |
| U8A A14G C31U G58A C61G C66U | ≤ | 0.5 |
| A14U G17A G23C C29U C34G A45C U54G | ≤ | 0.5 |
| C24U C27G C55G G68A | = | 0.526 |
| U19C C46G A65G | = | 0.716 |
| A15C C30A | = | 0.666 |
| U35C A45C | = | 0.862 |
| A42G U64A | = | 0.724 |
| G18U C34U | ≤ | 0.5 |
| U3A C11G C61A | ≤ | 0.5 |
| U2A C5G G25A C66U | = | 0.532 |
